System: NCI-H226 lung
measurement.description: NCI-60 one-dose screen, 48 h (100 = growth as untreated, 0 = no growth, -100 = all killed)
assay.conditions: 10 µM unless noted
Compounds without any hit were thinned out: in the full panel of roughly 83,000, 20% have a hit.
readout.label: growth (%)

1) COC(=O)[C@]1(C(C)C)N[C@H](c2cn(-c3ccccc3)nc2-c2ccccc2)[C@@H]2C(=O)N(c3ccc(Cl)cc3)C(=O)[C@@H]21 ... 105
2) CC1SC(c2c(Cl)cccc2Cl)N(NC(=O)c2[nH]c3ccc(F)cc3c2-c2ccccc2)C1=O (stereo not given) ... 58.5
3) O=C1CC(C(F)(F)F)=NN1C(=O)c1nn(-c2ccc(Cl)cc2)cc1O ... 79.8
4) CC(C)(C)c1ccc(S(=O)(=O)O)s1 ... 107
5) CC(c1ccccn1)C(C)(O)C(C)c1ccccn1 (stereo not given) ... 103
6) C=CC1=C(C(=O)O)N2C(=O)[C@@H](NC(=O)/C(=N\O)c3csc(N)n3)[C@H]2SC1 (stereo in doubt) ... 101
7) COc1ccc2c(c1)nc(N)c1c3cc(C)c(C)cc3cn21 ... 86.8
8) Cc1cc(C)n(C(=O)c2nn(-c3ccc(Cl)cc3)cc2O)n1 ... 44.9
9) O=C(O)c1ccc(NC(=O)c2ccc(Nc3ccnc(C(F)(F)F)c3)cc2)cc1 ... 100
10) Cc1ccc(C(=O)Nc2ccc(Cl)cc2C(=O)NCc2ccccc2)cc1 ... 92.9

###

Test system: M14 melanoma
measurement.description: NCI-60 one-dose screen, 48 h
assay.conditions: 10 µM unless noted
Method: Growth inhibition of the M14 human tumor cell line is measured as a screen for anti-cancer activity. Cells are grown in 96 well plates and exposed to the test compound for 48 hours. Compounds are tested at a single concentration, which is 10^-5 M for most compounds. The reported endpoint is percent growth (GI% or GIPRCNT), where numbers from 0 - 100% represent growth inhibition, and numbers from -100% - 0 represent cell death. For example, a value of 40 represents 60% growth inhibition. […]
About 83,000 compounds went through this panel and 20% of them were active in at least one assay; those are over-represented in the sample as a whole. Activity calls are given as the source filed them. Rule for the calls: active = growth percent below 10; inactive = the rest.
Labels: t (active), f (inactive)

1. O=[N+]([O-])c1ccc(N/N=C\c2ccccc2[N+](=O)[O-])nc1 ... f
2. Cc1cc(C(C)(C)C)cc(C)c1CC1=NCCN1 ... f
3. C/C(=C\CCc1ccoc1)CC/C=C(\C)CCCN1CCC(CO)CC1 ... f
4. Nc1ncc(-c2cnn(C3CCNCC3)c2)cc1-c1nc2cc(Cl)ccc2o1 ... t
5. COc1cc(C2CC(c3ccc(C)cc3)=NN2C(C)=O)ccc1Oc1ccnc2cc(Cl)ccc12 (stereo not given) ... f
6. O=C(Nc1ncc([N+](=O)[O-])s1)c1cccc([N+](=O)[O-])c1 ... f
7. COc1ccc(/C(=C2\O[C@@H]([C@H](O)CO)[C@H]3OC(C)(C)O[C@@H]23)c2cc(OC)c(OC)c(OC)c2)cc1O ... f
8. CCCOc1ccc2c(c1)CC[C@@H]1[C@@H]2CC[C@@]2(C)[C@H]1CC[C@]2(C)O ... f
9. O[C@@H]1Cc2ccc3ccccc3c2N[C@H](c2ccoc2)C1 ... f
10. CSc1nc2c(c(=O)[nH]1)C(c1ccc(Cl)cc1)C1=C(N2)/C(=C/c2ccc(Cl)cc2)CNC1 (stereo not given) ... f
